ASSAYED TARGET: T1, human CLDN6, endogenously expressed on cancer cell lines (human, UniProt P56747 1-220)
T1 construct: also called Endogenous CLDN6+; CLDN6 on ARK2, OVCA429, UMUC4 cells
T1 sequence: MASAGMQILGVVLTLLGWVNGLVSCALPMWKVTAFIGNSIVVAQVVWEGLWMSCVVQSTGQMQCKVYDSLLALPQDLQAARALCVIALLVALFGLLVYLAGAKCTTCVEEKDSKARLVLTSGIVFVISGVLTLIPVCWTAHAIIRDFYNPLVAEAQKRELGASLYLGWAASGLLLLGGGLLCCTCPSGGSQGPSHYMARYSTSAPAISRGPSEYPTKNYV
EXPERIMENTAL DETAILS: FACS, OVCA429 cells, 1.5 ug Ab
Everything with FACS signal lower than 90000 is n; everything else, including exactly 90000, is y.

Example entries and their recorded answers appear below.
BINDER	CATEGORY LABEL
AB3-chim (antibody, V domains shown, Parental antibody prior to humanization ('chim'); also called pre-humanized form of AB3) VH: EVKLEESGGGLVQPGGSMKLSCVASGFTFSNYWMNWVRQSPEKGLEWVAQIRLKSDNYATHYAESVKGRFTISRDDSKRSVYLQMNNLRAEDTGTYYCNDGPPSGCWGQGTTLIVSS VL: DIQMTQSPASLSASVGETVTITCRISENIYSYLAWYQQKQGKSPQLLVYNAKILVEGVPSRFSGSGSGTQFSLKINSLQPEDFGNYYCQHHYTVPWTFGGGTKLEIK	y
AB18-4 (antibody, V domains shown, Humanized; also called humanized AB 18-4) VH: QVQLVQSGAEVKKPGASVKVSCKASGYSFTGYNMNWVRQAPGQGLEWMGNIDPYYGGSTYAQKFQGRVTMTVDTSTSTVYMELSSLRSEDTAVYYCARERSGYVFSAMDYWGQGTLVTVSS VL: DIVMTQSPDSLAVSLGERVTMNCKSSQSVLFSSNQKNYLAWYQQKPGQPPKLLIYWASTRESGVPDRFSGSGSGTDFTLTISSVQAEDVAVYYCHQYLSSRTFGQGTKLEIK	n
AB3-2 (antibody, V domains shown, Humanized; also called humanized AB 3-2) VH: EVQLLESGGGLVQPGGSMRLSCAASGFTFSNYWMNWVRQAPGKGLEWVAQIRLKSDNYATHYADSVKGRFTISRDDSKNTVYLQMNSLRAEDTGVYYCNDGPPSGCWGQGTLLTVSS VL: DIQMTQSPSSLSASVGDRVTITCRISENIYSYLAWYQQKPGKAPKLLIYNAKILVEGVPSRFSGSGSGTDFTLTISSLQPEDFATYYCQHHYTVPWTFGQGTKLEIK	n
AB18-6 (antibody, V domains shown, Humanized; also called humanized AB 18-6) VH: QVQLVQSGAEVKKPGASVKISCKASGYSFTGYNMNWVRQAPGQGLEWIGNIDPYYGGSTYAQKFQGRATLTVDTSTSTAYMELSSLRSEDTAVYYCARERSGYVFSAMDYWGQGTLVTVSS VL: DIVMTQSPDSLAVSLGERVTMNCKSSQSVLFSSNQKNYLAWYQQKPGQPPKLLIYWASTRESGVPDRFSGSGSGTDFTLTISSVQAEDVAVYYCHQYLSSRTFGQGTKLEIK	n

We now examine a further binder.
QUERY: Textbook exercise: given the entry AB3-4 (antibody, V domains shown, Humanized; full-length IgG; also called humanized AB 3-4) VH: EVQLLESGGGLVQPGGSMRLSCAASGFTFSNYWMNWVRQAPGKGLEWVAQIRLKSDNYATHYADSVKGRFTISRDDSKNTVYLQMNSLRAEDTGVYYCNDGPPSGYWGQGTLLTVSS VL: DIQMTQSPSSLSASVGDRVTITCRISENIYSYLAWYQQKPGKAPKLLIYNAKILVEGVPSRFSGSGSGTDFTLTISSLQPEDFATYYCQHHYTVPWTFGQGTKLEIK , state whether its FACS signal is greater than or equal to 90000.
RESULT: n
